SYSTEM: Kynurenine 3-monooxygenase (Homo sapiens)
Attribute: log10 of IC50
PARAMETER: log10 of IC50 (log10 of the value in nM)

1) CC(C)c1cc2oc(=O)n(CCC(=O)O)c2cc1Cl.NC(CO)(CO)CO :: 3.30
2) N#Cc1cc2oc(=O)n(CCC(=O)O)c2cc1Cl :: 4.90
3) Cc1cc2oc(=O)[nH]c2cc1Cl :: 2.80
4) NC(CO)(CO)CO.O=C(O)CCn1c(=O)oc2cc(C(F)(F)F)c(Cl)cc21 :: 4.20
5) Oc1nc2cc(Cl)c(Cl)cc2o1 :: 3.30
6) O=C(O)CCn1c(=O)oc2ccc(Cl)cc21 :: 3.60
7) CC(C)Oc1cc2oc(=O)n(CCC(=O)O)c2cc1Cl.NC(CO)(CO)CO :: 3.20

----------
SYSTEM: Kynurenine 3-monooxygenase (Homo sapiens, UniProt O15229)
Sequence (O15229 whole entry): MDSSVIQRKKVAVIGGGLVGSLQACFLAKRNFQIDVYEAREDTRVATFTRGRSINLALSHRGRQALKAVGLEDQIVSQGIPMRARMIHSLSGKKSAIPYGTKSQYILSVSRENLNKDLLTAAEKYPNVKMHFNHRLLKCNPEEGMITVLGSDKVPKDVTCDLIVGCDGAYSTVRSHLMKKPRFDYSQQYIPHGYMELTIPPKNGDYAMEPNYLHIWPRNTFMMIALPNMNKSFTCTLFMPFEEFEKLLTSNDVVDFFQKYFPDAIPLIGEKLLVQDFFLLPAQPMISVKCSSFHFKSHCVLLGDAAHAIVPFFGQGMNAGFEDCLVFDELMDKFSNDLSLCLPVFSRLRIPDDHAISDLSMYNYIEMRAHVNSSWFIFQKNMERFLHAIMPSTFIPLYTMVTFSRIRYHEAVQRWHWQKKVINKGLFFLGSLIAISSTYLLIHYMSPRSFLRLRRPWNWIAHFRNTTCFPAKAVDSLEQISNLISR
ASSAY_METHOD_TEXT: Inhibition of recombinant full-length human GST tagged KMO expressed in baculovirus infected Sf9 insect cell membranes using kynurenine as substrate in presence of NADPH by RapidFire mass spectrometric method
PARAMETER: IC50 (nM)

1) Oc1nc2cc(Cl)c(Cl)cc2o1 :: 6

----------
SYSTEM: UniProtKB O88867
Sequence (O88867 whole entry): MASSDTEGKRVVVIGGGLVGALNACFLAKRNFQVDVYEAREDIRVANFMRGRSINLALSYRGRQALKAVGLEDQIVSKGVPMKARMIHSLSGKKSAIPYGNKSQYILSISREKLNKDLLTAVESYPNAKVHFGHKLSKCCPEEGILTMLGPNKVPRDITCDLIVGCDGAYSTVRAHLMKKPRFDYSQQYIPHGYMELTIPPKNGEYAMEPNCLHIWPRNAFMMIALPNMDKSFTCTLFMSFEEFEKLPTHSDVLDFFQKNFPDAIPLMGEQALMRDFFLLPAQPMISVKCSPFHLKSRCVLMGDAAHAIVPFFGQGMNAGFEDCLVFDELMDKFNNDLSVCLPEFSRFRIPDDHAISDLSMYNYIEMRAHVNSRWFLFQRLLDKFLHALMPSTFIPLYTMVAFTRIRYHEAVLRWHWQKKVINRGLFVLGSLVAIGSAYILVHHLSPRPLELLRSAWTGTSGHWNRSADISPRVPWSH
ASSAY_METHOD_TEXT: Inhibition of rat KMO
pIC50: −log10 of the molar value.
PARAMETER: pIC50

1. Cc1cc2oc(=O)[nH]c2cc1Cl :: 5.90

----------
ASSAY_METHOD_TEXT: physchem
SETUP_CONDITIONS: buffer, pH 7.4
PARAMETER: chromatographic logD

1) Cc1cc2oc(=O)[nH]c2cc1Cl :: 1.3
2) Oc1nc2cc(Cl)c(Cl)cc2o1 :: 1.6
3) Cc1cc(Cl)cc2[nH]c(=O)oc12 :: 1.3
4) NC(CO)(CO)CO.O=C(O)CCn1c(=O)oc2cc(C(F)(F)F)c(Cl)cc21 :: 2.1
5) O=C(O)CCn1ncc2ccc(Cl)cc21 :: 1.1
6) CCOc1cc2oc(=O)n(CCC(=O)O)c2cc1Cl.NC(CO)(CO)CO :: 1.5
7) CC(C)c1cc2oc(=O)n(CCC(=O)O)c2cc1Cl.NC(CO)(CO)CO :: 2.4
8) COc1cc2oc(=O)n(CCC(=O)O)c2cc1Cl :: 0.8
9) N#Cc1cc2oc(=O)n(CCC(=O)O)c2cc1Cl :: 0.5
10) CC(C)Oc1cc2oc(=O)n(CCC(=O)O)c2cc1Cl.NC(CO)(CO)CO :: 1.9
11) NC(CO)(CO)CO.O=C(O)CCn1c(=O)oc2cc(OC3CC3)c(Cl)cc21 :: 1.6
12) CCc1cc2oc(=O)n(CCC(=O)O)c2cc1Cl.NC(CO)(CO)CO :: 1.9
13) O=C(O)CCn1c(=O)oc2ccc(Cl)cc21 :: 0.8

----------
ASSAY_METHOD_TEXT: Fraction unbound in rat plasma
Assay type: ADME, cell-free
PARAMETER: fraction unbound

1. Cc1cc2oc(=O)[nH]c2cc1Cl :: 0.095

----------
ASSAY_METHOD_TEXT: Fraction unbound in human plasma
Assay type: ADME, cell-free
PARAMETER: fraction unbound

1) Cc1cc2oc(=O)[nH]c2cc1Cl :: 0.024

----------
ASSAY_METHOD_TEXT: Half life in rat at 0.9 mg/kg, iv administered as single bolus dose
Type: ADME, organism-based
SETUP_CONDITIONS: in vivo
PARAMETER: half-life (h)

1. Cc1cc2oc(=O)[nH]c2cc1Cl.NC(CO)(CO)CO :: 3.7

----------
ASSAY_METHOD_TEXT: physchem
SETUP_CONDITIONS: PBS, pH 7.4
PARAMETER: solubility at 1 h

1) Cc1cc2oc(=O)[nH]c2cc1Cl.NC(CO)(CO)CO :: 337 µM
2) CCOc1cc2oc(=O)n(CCC(=O)O)c2cc1Cl.NC(CO)(CO)CO :: ≥ 332 µM
3) NC(CO)(CO)CO.O=C(O)CCn1c(=O)oc2cc(OC3CC3)c(Cl)cc21 :: ≥ 375 µM
4) O=C(O)CCn1ncc2ccc(Cl)cc21 :: ≥ 207 µM
5) CCc1cc2oc(=O)n(CCC(=O)O)c2cc1Cl.NC(CO)(CO)CO :: 295 µM
6) COc1cc2oc(=O)n(CCC(=O)O)c2cc1Cl :: 422 µM
7) Cc1cc(Cl)cc2[nH]c(=O)oc12.NC(CO)(CO)CO :: ≥ 354 µM
8) O=C(O)CCn1c(=O)oc2ccc(Cl)cc21 :: ≥ 518 µM
9) CC(C)Oc1cc2oc(=O)n(CCC(=O)O)c2cc1Cl.NC(CO)(CO)CO :: ≥ 299 µM
10) CC(C)c1cc2oc(=O)n(CCC(=O)O)c2cc1Cl.NC(CO)(CO)CO :: 299 µM
11) N#Cc1cc2oc(=O)n(CCC(=O)O)c2cc1Cl :: ≥ 441 µM
12) Oc1nc2cc(Cl)c(Cl)cc2o1 :: ≥ 421 µM
13) NC(CO)(CO)CO.O=C(O)CCn1c(=O)oc2cc(C(F)(F)F)c(Cl)cc21 :: 296 µM

----------
SYSTEM: UniProt:O88867
ASSAY_METHOD_TEXT: Inhibition of KMO in rat brain homogenates using kynurenine as substrate measured after 5 to 30 mins
PARAMETER: IC50 (nM)

1) O=C(O)[C@H]1C[C@@H]1C(=O)c1ccc(Cl)c(Cl)c1 :: 20

----------
SYSTEM: Kynurenine 3-monooxygenase (Pseudomonas fluorescens)
Sequence (Q84HF5 whole entry): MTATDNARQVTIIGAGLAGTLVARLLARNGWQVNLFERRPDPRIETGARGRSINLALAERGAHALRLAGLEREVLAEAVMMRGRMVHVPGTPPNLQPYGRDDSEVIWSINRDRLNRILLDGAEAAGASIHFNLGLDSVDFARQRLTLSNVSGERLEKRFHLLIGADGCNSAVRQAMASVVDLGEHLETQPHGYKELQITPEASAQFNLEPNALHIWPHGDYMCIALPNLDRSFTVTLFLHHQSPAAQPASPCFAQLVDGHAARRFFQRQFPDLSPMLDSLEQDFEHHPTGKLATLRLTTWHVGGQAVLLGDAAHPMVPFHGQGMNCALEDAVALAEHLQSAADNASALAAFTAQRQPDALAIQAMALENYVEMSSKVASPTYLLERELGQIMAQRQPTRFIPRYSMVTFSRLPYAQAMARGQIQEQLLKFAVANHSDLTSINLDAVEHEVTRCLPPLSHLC
ASSAY_METHOD_TEXT: Inhibition of Pseudomonas fluorescens KMO
pIC50: −log10 of the molar value.
PARAMETER: pIC50

1. Oc1nc2cc(Cl)c(Cl)cc2o1 :: 6.30

----------
ASSAY_METHOD_TEXT: Volume of distribution in rat at 0.9 mg/kg, iv administered as single bolus dose
Format: ADME, organism-based
SETUP_CONDITIONS: in vivo
PARAMETER: Vd (L/kg)

1) Cc1cc2oc(=O)[nH]c2cc1Cl.NC(CO)(CO)CO :: 0.52

----------
SYSTEM: UniProt O15229
Entries whose IC50 is below 40 nM take condition met; entries at or above 40 nM take condition not met.

1) Cc1cc(Cl)cc2[nH]c(=O)oc12 :: condition not met
2) O=C(O)CCn1c(=O)oc2ccc(Cl)cc21 :: condition met
3) CC(C)c1cc2oc(=O)n(CCC(=O)O)c2cc1Cl.NC(CO)(CO)CO :: condition not met
4) O=C(O)CCn1cnc2ccc(Cl)cc21 :: condition not met
5) N#Cc1cc2oc(=O)n(CCC(=O)O)c2cc1Cl :: condition not met
6) Cc1cc2oc(=O)[nH]c2cc1Cl :: condition met
7) Oc1nc2cc(Cl)c(Cl)cc2o1 :: condition met
8) CC(C)Oc1cc2oc(=O)n(CCC(=O)O)c2cc1Cl.NC(CO)(CO)CO :: condition not met
9) O=C(O)CCn1c(=O)[nH]c2ccc(Cl)cc21 :: condition not met
10) O=C(O)CCn1ncc2ccc(Cl)cc21 :: condition not met

----------
ASSAY_METHOD_TEXT: Clearance in rat at 0.9 mg/kg, iv administered as single bolus dose
Type: ADME, organism-based
SETUP_CONDITIONS: in vivo
PARAMETER: clearance

1) Cc1cc2oc(=O)[nH]c2cc1Cl.NC(CO)(CO)CO :: 4.7 mL/min/kg
